# protocol: Alizarin red (ARS) assay, lactate binding affinity
# condition.context: 20 mM phosphate buffer pH 7.4, room temperature, N.D. = not detectable
parameter: Kd
Hey, just the number and the unit after it is fine.

Previously resolved entries follow.
{"chemical.structure": "O=C(O)c1cc(CNC(=O)c2ccc(B(O)O)c(F)c2)cc(CNC(=O)c2ccc(B(O)O)c(F)c2)c1", "Kd": "5.4 mM"}
{"chemical.structure": "CS(=O)(=O)c1cc(C(=O)NCCN(CC(=O)O)C(=O)c2cc3c(c(S(C)(=O)=O)c2)COB3O)cc2c1COB2O", "Kd": "4.4 mM"}
{"chemical.structure": "O=C(NCCCC[C@H](NC(=O)c1cc2c(cc1F)B(O)OC2)C(=O)O)c1ccc(B(O)O)cc1F", "Kd": "16 mM"}
{"chemical.structure": "O=C(O)CN(CCNC(=O)c1ccc2c(c1F)B(O)OC2)C(=O)c1ccc2c(c1F)B(O)OC2", "Kd": "40 mM"}

The recorded Kd for O=C(O)c1cc(B(O)O)cc(C(=O)c2cc(B(O)O)c(F)cc2F)c1 is 4 mM

The recorded Kd for NC(=O)CN(CCNC(=O)c1ccc(B(O)O)c(F)c1)C(=O)c1ccc(B(O)O)c(F)c1 is 16 mM

The recorded Kd for O=C(O)CCC(=O)N1C[C@H](NC(=O)c2cc3c(c(C(F)(F)F)c2)COB3O)[C@@H](NC(=O)c2cc3c(c(C(F)(F)F)c2)COB3O)C1 is 41 mM

###

# protocol: Glucose affinity by 13C NMR assay
# condition.context: 1 mM glucose and 1 mM boronate, pH 7.4, 10 mM phosphate buffer, read-out: Binding Affinity [Kd Glucose (mM)] measured by 13C-NMR
parameter: Kd (mM)
Express your answer in mM, writing the number without its unit.

The recorded Kd for O=C(O)CN=S(=O)(c1cc(B(O)O)cc(C(F)(F)F)c1)c1cc(B(O)O)cc(C(F)(F)F)c1 is 0.06

###

The entries below come with measured Kd values attached.
# protocol: Alizarin red (ARS) assay, lactate binding affinity
# condition.context: 20 mM phosphate buffer pH 7.4, room temperature, N.D. = not detectable
Express your answer in mM, writing the number without its unit.

Previously resolved entries follow.
{"compound": "O=C(O)CN(CCNC(=O)c1cc2c(cc1F)COB2O)C(=O)c1cc2c(cc1F)COB2O [Example 7]", "Kd, mM": 24.1}
{"compound": "O=C(NC[C@H](NC(=O)c1ccc2c(c1F)B(O)OC2)C(=O)O)c1ccc2c(c1F)B(O)OC2 [Example 15]", "Kd, mM": 10}

The recorded Kd for O=C(O)CN(CCNC(=O)c1cc2c(cc1C(F)(F)F)COB2O)C(=O)c1cc2c(cc1C(F)(F)F)COB2O [Example 37] is 13

The recorded Kd for O=C(NCC[C@H](NC(=O)c1ccc(B(O)O)c(F)c1)C(=O)O)c1ccc(B(O)O)c(F)c1 [Example 4] is 6.5

###

# protocol: Alizarin red (ARS) assay, glucose binding affinity
# condition.context: 20 mM phosphate buffer pH 7.4, room temperature
Classify: Satisfied when Kd is strictly less than 0.6 mM; Not satisfied when Kd is not.

The following compounds have reported results that may help.
{"compound": "O=C(O)c1cc(B(O)O)c(F)c(S(=O)(=O)c2ccc(F)c(B(O)O)c2)c1 [Example 11]", "cat": "Not satisfied"}
{"compound": "O=C(NCC[C@H](NC(=O)c1ccc(B(O)O)c(F)c1)C(=O)O)c1ccc(B(O)O)c(F)c1 [Example 4]", "cat": "Not satisfied"}
{"compound": "O=C(O)c1c(C(F)(F)F)cc(B(O)O)cc1S(=O)(=O)c1cc(B(O)O)cc(C(F)(F)F)c1 [Example 43]", "cat": "Not satisfied"}
{"compound": "CS(=O)(=O)c1cc(C(=O)NCCN(CC(=O)O)C(=O)c2cc3c(c(S(C)(=O)=O)c2)COB3O)cc2c1COB2O [Example 41]", "cat": "Not satisfied"}
{"compound": "O=C(NC[C@H](NC(=O)c1ccc2c(c1F)B(O)OC2)C(=O)O)c1ccc2c(c1F)B(O)OC2 [Example 15]", "cat": "Satisfied"}

Next up:
Item O=C(O)CNC(=O)c1cc(B(O)O)cc(C(F)(F)c2cc(B(O)O)cc(C(F)(F)F)c2)c1 [Example 18] : Kd beneath 0.6 mM, strictly?
Satisfied
